Molecular target: recombinant pentameric gH complex (Towne strain) (human cytomegalovirus, Towne strain) (UniProt P17176)
Sequence (P17176 30-715, one chain of several): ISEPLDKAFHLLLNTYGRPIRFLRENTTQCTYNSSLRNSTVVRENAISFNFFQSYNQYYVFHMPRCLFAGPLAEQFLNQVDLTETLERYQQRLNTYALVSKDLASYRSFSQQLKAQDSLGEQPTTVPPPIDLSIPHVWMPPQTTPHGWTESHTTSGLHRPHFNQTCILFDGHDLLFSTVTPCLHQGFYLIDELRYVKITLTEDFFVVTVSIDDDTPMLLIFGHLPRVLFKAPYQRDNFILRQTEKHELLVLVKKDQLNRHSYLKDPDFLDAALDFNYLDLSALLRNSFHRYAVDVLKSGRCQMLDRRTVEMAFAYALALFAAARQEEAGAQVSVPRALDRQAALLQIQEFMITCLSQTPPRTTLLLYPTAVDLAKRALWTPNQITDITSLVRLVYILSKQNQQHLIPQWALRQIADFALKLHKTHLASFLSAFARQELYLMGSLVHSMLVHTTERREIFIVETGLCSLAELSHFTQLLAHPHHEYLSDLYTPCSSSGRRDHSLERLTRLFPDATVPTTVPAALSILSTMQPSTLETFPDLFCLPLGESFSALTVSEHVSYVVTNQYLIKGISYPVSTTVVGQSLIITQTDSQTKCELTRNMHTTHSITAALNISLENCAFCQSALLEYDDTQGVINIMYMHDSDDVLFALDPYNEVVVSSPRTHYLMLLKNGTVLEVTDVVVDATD
Experiment: BLI competition on His-pentamer; competitor (antibody 2): 1-32
// values below are reported Pair-wise inhibition (%)
Field format: number, assumed %, no unit text.

Some binders with recorded Pair-wise inhibition (%):
3-16 (antibody, V domains shown) VH: QVQVVQSGAEVKKPGASVMVSCKTSGYRFTIYSIAWMRQAPGQGLEWMGSINTYNGNTKYAEKFQGRVTMSRDTSTSTAYMEVRSLGSADTAMYYCARDAENWGFFDDWGQGTLVTVSS VL: EIVLTQSPGTVSLSPGERVTLSCRASQSVGRHLAWYQQKPGQPPRLLIYGASTRATGVPDRFSGSGSETEFTLAISSLQSEDFALYYCQQYNTWPYTFGQGTKLEIK = -5
2-18 (antibody, V domains shown) VH: EVQLVQSGGGLVQPGGSLRVSCAASGFSFSDHDMDWVRQAPGKGFEWVGRSRNKDYSSTTEYAASVRGRFTISRHTSEDLLYLELNTVKTEDTAVYFCARGPHHSDRSGYYGGTFDIWGQGTMVTVSS VL: DIQMTQSPSSVSASVGDRVIITCRASQGISSWLAWYQQKPGRAPRLLIYDASTLESGVPSRFSGRGSGTEFTLTINSLQPEDFATYYCQQGNMFPLTFGGGTKVEIK = -1

Next binder, Pair-wise inhibition (%) to be filled in.
Req: Tell me the measured Pair-wise inhibition (%) of 1-103 (antibody, V domains shown) VH: QLQLQESGPGLVKPSETLSLTCSVSGDAISGSNYYWGWIRQPPGKGLQWIGSIYHTGSTFYNPSFSSRVTLSVDTSKNQFSLKLISVNAADTAVYYCARRIRGYSGTYDWGQGTLVTVSS VL: DIQLTQSPSFLSASVGDRVTITCRASQDISSYVAWYQQKPGNAPKLLISSASTLPSGVPSRFSGSRSGTDFTLTISSLQPEDFATYYCQQLNNFGPGTTVDIK , please.
Resp: -12
